src = patent US20110244047A1

Assay: Particle size of the drug particles used (electron microscope, 200 particles)
Type: physicochemical
Settings: drug particles before incorporation
Excerpt: The various drug particles used in the Examples and Comparative Examples were obtained passing the powder through a 32 μm, 50 μm or 90 μm sieve after pulverization, or obtained fine particles by a jet mill (product of Hosokawa Micron Group, spiral jet mill model 50AS) or a spray dryer (product of Büchi Labortechnik AG, mini spray dryer model B-290) after pulverization. […]
Measured property: 50 vol % average particle size (um)

# annotated cases, reported 50 vol % average particle size shown
[[record]]
compound = "COc1ccc2c(c1)c(CC(=O)O)c(C)n2C(=O)c1ccc(Cl)cc1"
measured_property = "50 vol % average particle size"
quantitative_result = 1.8

[[record]]
compound = "COc1ccc2[nH]cc(CCNC(C)=O)c2c1 [Melatonin particles A, Melatonin]"
measured_property = "50 vol % average particle size"
quantitative_result = 2.1


P: CC(C(=O)O)c1cccc(C(=O)c2ccccc2)c1 (centres unmarked)
Q: COc1ccc2[nH]cc(CCNC(C)=O)c2c1 [Melatonin particles C, Melatonin]
R: COc1ccc2[nH]cc(CCNC(C)=O)c2c1 [Melatonin particles B, Melatonin]
I would appreciate it if you could sort these 3 compounds by 50 vol % average particle size, starting from the smallest number. Write the labels in rank order as requested.
P, R, Q
